# Tested on: Staphylococcus aureus Newman
# assay-notes: OD600 after 10 h growth (baseline-subtracted); higher = more bacterial growth (less inhibition)
# test-settings: 32 µg/mL
measured-attribute: OD600 after 10 h growth

smiles_data=CC1=C(C)C(=O)C(CCCCCCCCCC[P+](c2ccccc2)(c2ccccc2)c2ccccc2)=CC1=O data_value=0.0217
smiles_data=Cc1cn([C@H]2C[C@H](O)[C@@H](CO)O2)c(=O)[nH]c1=O data_value=1.1
smiles_data=COc1cc2c(cc1Cc1cccc(Cl)c1F)c(=O)c(C(=O)O)cn2[C@H](CO)C(C)C data_value=0.00533
smiles_data=Cc1c(Cl)c(C)[n+]([O-])c(Cl)c1-c1noc(-c2cc(O)c(O)c([N+](=O)[O-])c2)n1 data_value=0.371
smiles_data=CC(=O)N[C@H](Cc1ccc2ccccc2c1)C(=O)N[C@H](Cc1ccc(Cl)cc1)C(=O)N[C@H](Cc1cccnc1)C(=O)N[C@@H](CO)C(=O)N[C@@H](Cc1ccc(O)cc1)C(=O)N[C@H](CCCNC(N)=O)C(=O)N[C@@H](CC(C)C)C(=O)N[C@@H](CCCNC(=N)N)C(=O)N1CCC[C@H]1C(=O)N[C@H](C)C(N)=O data_value=1.12
smiles_data=CC(C)(C)c1ccc(C(=O)CCCN2CCC(OC(c3ccccc3)c3ccccc3)CC2)cc1 data_value=0.991

###

The entries below come with measured OD600 after 10 h growth values attached.
# Test system: Escherichia coli IAI1
# assay-notes: OD600 after 10 h growth (baseline-subtracted); higher = more bacterial growth (less inhibition)
# test-settings: 128 µg/mL
measured-attribute: OD600 after 10 h growth

smiles_data=COc1cc2c(cc1Cc1cccc(Cl)c1F)c(=O)c(C(=O)O)cn2[C@H](CO)C(C)C data_value=0.771
smiles_data=CC1=C(C)C(=O)C(CCCCCCCCCC[P+](c2ccccc2)(c2ccccc2)c2ccccc2)=CC1=O data_value=0.0327
smiles_data=Cc1cn([C@H]2C[C@H](O)[C@@H](CO)O2)c(=O)[nH]c1=O data_value=0.772

###

# Tested on: Escherichia coli IAI1
# assay-notes: OD600 after 10 h growth (baseline-subtracted); higher = more bacterial growth (less inhibition)
# test-settings: 0.5 µg/mL
measured-attribute: OD600 after 10 h growth

smiles_data=COc1cc2c(cc1Cc1cccc(Cl)c1F)c(=O)c(C(=O)O)cn2[C@H](CO)C(C)C measured_target="Escherichia coli IAI1" data_value=0.816
smiles_data=Cc1cn([C@H]2C[C@H](O)[C@@H](CO)O2)c(=O)[nH]c1=O measured_target="Escherichia coli IAI1" data_value=0.803
smiles_data=Cc1c(Cl)c(C)[n+]([O-])c(Cl)c1-c1noc(-c2cc(O)c(O)c([N+](=O)[O-])c2)n1 measured_target="Escherichia coli IAI1" data_value=0.822
smiles_data=CC1=C(C)C(=O)C(CCCCCCCCCC[P+](c2ccccc2)(c2ccccc2)c2ccccc2)=CC1=O measured_target="Escherichia coli IAI1" data_value=0.8
smiles_data=CC(=O)N[C@H](Cc1ccc2ccccc2c1)C(=O)N[C@H](Cc1ccc(Cl)cc1)C(=O)N[C@H](Cc1cccnc1)C(=O)N[C@@H](CO)C(=O)N[C@@H](Cc1ccc(O)cc1)C(=O)N[C@H](CCCNC(N)=O)C(=O)N[C@@H](CC(C)C)C(=O)N[C@@H](CCCNC(=N)N)C(=O)N1CCC[C@H]1C(=O)N[C@H](C)C(N)=O measured_target="Escherichia coli IAI1" data_value=0.829
smiles_data=CC(C)(C)c1ccc(C(=O)CCCN2CCC(OC(c3ccccc3)c3ccccc3)CC2)cc1 measured_target="Escherichia coli IAI1" data_value=0.793
